System: MCF7
experiment: Cytotoxicity against human MCF7 cells assessed as reduction in cell viability after 48 hrs by trypan blue exclusion assay
Type: functional, cell-based
condition: MCF7, 48 h
// values below are reported pIC50
The meaning of pIC50 here: minus log10 of the concentration in molar units.

For orientation, consider the following solved cases.
{"compound.string": "CC(C)c1ccccc1OCC(=O)Nc1nc(-c2ccc(Br)cc2)cs1", "reading": 4.36}
{"compound.string": "O=C(COc1ccc(F)cc1F)Nc1nc(-c2ccc(Cl)cc2)cs1", "reading": 4.60}
{"compound.string": "CC(C)c1ccccc1OCC(=O)Nc1nc(-c2ccc(Cl)cc2)cs1", "reading": 4.74}
{"compound.string": "Cc1ccc(-c2csc(NC(=O)COc3ccc(Cl)cc3)n2)cc1", "reading": 4.36}
{"compound.string": "O=C(COc1ccccc1)Nc1nc(-c2ccc(Br)cc2)cs1", "reading": 4.27}
{"compound.string": "Cc1cc(OCC(=O)Nc2nc(-c3ccc(Br)cc3)cs2)ccc1Cl", "reading": 4.29}
{"compound.string": "O=C(COc1ccccc1)Nc1nc(-c2ccc(Cl)cc2)cs1", "reading": 4.25}
{"compound.string": "Cc1cc(Cl)ccc1OCC(=O)Nc1nc(-c2ccc(Cl)cc2)cs1", "reading": 4.40}
{"compound.string": "Cc1ccc(OCC(=O)Nc2nc(-c3ccc(Cl)cc3)cs2)cc1", "reading": 4.31}
{"compound.string": "Cc1ccc(OCC(=O)Nc2nc(-c3ccc(C)cc3)cs2)cc1", "reading": 4.38}

Hi! What's the reported pIC50 for `Cc1ccc(-c2csc(NC(=O)COc3ccccc3)n2)cc1` on MCF7?
4.37

Hi! What's the reported pIC50 for `O=C(COc1ccc(F)cc1)Nc1nc(-c2ccc(Br)cc2)cs1` on MCF7?
4.25

Hi! What's the reported pIC50 for `Cc1ccc(-c2csc(NC(=O)COc3ccc(F)cc3F)n2)cc1` on MCF7?
4.85

---

// values below are reported IC50
Tested on: MCF7
experiment: Cytotoxicity against human MCF7 cells assessed as reduction in cell viability after 48 hrs by trypan blue exclusion assay
Type: functional, cell-based
condition: MCF7, 48 h
Quick note: give the figure in µM, leave out the unit.

For orientation, consider the following solved cases.
{"compound.string": "Cc1ccc(OCC(=O)Nc2nc(-c3ccc(Br)cc3)cs2)cc1", "IC50 (µM)": 52.4}
{"compound.string": "Cc1ccc(-c2csc(NC(=O)COc3ccc(Br)cc3)n2)cc1", "IC50 (µM)": 39}
{"compound.string": "O=C(COc1ccc(Cl)cc1)Nc1nc(-c2ccc(Br)cc2)cs1", "IC50 (µM)": 41.4}

Given the molecule `Cc1ccc(-c2csc(NC(=O)COc3ccc(F)cc3)n2)cc1` , what is its reported IC50?
18.1
